Catalogue of viability, T/C readings, one per entry.
- System: 186277-243-T-J2-PDC spheroids with HUVEC/MSC, viability
- ASSAY SUMMARY: Anticancer human tumor 186277-243-T-J2-PDC patient-derived colon adenocarcinoma cell line growth inhibition [CLK]
- APPLIED CONDITIONS: second compound 1 µM; first compound 10 µM; hits give low values
Answer format: numeric, % implied, no suffix.

COMPOUND: Nc1ccn(C2OC(CO)C(O)C2(F)F)c(=O)n1 (stereo not drawn) + CNC(=O)c1ccc(Nc2nc(OC3CCCC3)c3c(-c4ccc5nc(C)oc5c4)c[nH]c3n2)c(OC)c1
EXPERIMENTAL VALUE: 6.34

q: What does the data say about its viability, T/C? Entry: CCCS(=O)(=O)Nc1ccc(F)c(C(=O)c2c[nH]c3ncc(-c4ccc(Cl)cc4)cc23)c1F + CNC(=O)c1ccc(Nc2nc(OC3CCCC3)c3c(-c4ccc5nc(C)oc5c4)c[nH]c3n2)c(OC)c1
a: 27.3

q: What does the data say about its viability, T/C? Entry: CC1COCCN1c1cc(C2(S(C)(=N)=O)CC2)nc(-c2ccnc3[nH]ccc23)n1 (stereo not drawn) + CN1CCN(c2cc(C(=O)Nc3cc4cc(-c5cnn(C)c5)ccc4cn3)ccn2)CC1
a: 1.33

* * *

- System: 186277-243-T-J2-PDC spheroids with HUVEC/MSC, viability
- ASSAY SUMMARY: Anticancer human tumor 186277-243-T-J2-PDC cell line growth inhibition [CLK];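 also: compound exposure lasted seven days before readout; 100% = DMSO vehicle control wells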
- APPLIED CONDITIONS: second compound 1 µM; first compound 0.316 µM; hits give low values
Catalogue of viability, T/C readings, one per entry.
Answer format: numeric, % implied, no suffix.

MOLECULE: CCCS(=O)(=O)Nc1ccc(F)c(C(=O)c2c[nH]c3ncc(-c4ccc(Cl)cc4)cc23)c1F + CN1CCN(c2cc(C(=O)Nc3cc4cc(-c5cnn(C)c5)ccc4cn3)ccn2)CC1
viability, T/C (%): 1.17

MOLECULE: C=C(F)C(=O)N1CCN(c2nc(OCC3CCCN3C)nc3c2CCN(c2cccc4cccc(Cl)c24)C3)CC1CC#N (stereo not drawn) + CN1CCN(c2cc(C(=O)Nc3cc4cc(-c5cnn(C)c5)ccc4cn3)ccn2)CC1
viability, T/C (%): 1.16

In the following, a different molecule is considered.
q: What does the data say about its viability, T/C? Entry: Nc1ccn(C2OC(CO)C(O)C2(F)F)c(=O)n1 (stereo not drawn) + CNC(=O)c1ccc(Nc2nc(OC3CCCC3)c3c(-c4ccc5nc(C)oc5c4)c[nH]c3n2)c(OC)c1
a: 8.5

* * *

- Tested on: 186277-243-T-J2-PDC spheroids with HUVEC/MSC, viability
- ASSAY SUMMARY: Anticancer human tumor 186277-243-T-J2-PDC cell line growth inhibition [CLK];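 also: compound exposure lasted seven days before readout; 100% = DMSO vehicle control wells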
- APPLIED CONDITIONS: second compound 0.1 µM; first compound 0.316 µM; hits give low values
OBSERVED PROPERTY: viability, T/C (%)
Answer format: numeric, % implied, no suffix.

MOLECULE: CCc1c2c(nc3ccc(O)cc13)-c1cc3c(c(=O)n1C2)COC(=O)[C@]3(O)CC + CN1CCN(c2cc(C(=O)Nc3cc4cc(-c5cnn(C)c5)ccc4cn3)ccn2)CC1
TEST SYSTEM: 186277-243-T-J2-PDC spheroids with HUVEC/MSC, viability
OBSERVED PROPERTY: viability, T/C
EXPERIMENTAL VALUE: 14.3
//
MOLECULE: CC(=O)O[C@H]1C(=O)[C@@]2(C)[C@H]([C@H](OC(=O)c3ccccc3)[C@]3(O)C[C@H](OC(=O)[C@H](O)[C@@H](NC(=O)c4ccccc4)c4ccccc4)C(C)=C1C3(C)C)[C@]1(OC(C)=O)CO[C@@H]1C[C@@H]2O + CN1CCN(c2cc(C(=O)Nc3cc4cc(-c5cnn(C)c5)ccc4cn3)ccn2)CC1
TEST SYSTEM: 186277-243-T-J2-PDC spheroids with HUVEC/MSC, viability
OBSERVED PROPERTY: viability, T/C
EXPERIMENTAL VALUE: 11.3

q: What does the data say about its viability, T/C? Entry: COC1C=CCC(C)C(C)S(=O)(=O)NC(=O)c2ccc3c(c2)N(CC2CCC21)CC1(CCCc2cc(Cl)ccc21)CO3 (centres undefined) + CN1CCN(c2cc(C(=O)Nc3cc4cc(-c5cnn(C)c5)ccc4cn3)ccn2)CC1
a: 74

q: What does the data say about its viability, T/C? Entry: COC1C=CCC(C)C(C)S(=O)(=O)NC(=O)c2ccc3c(c2)N(CC2CCC21)CC1(CCCc2cc(Cl)ccc21)CO3 (centres undefined) + CNC(=O)c1ccc(Nc2nc(OC3CCCC3)c3c(-c4ccc5nc(C)oc5c4)c[nH]c3n2)c(OC)c1
a: 29.8

q: What does the data say about its viability, T/C? Entry: CC1(C)CCC(CN2CCN(c3ccc(C(=O)NS(=O)(=O)c4ccc(NCC5CCOCC5)c([N+](=O)[O-])c4)c(Oc4cnc5[nH]ccc5c4)c3)CC2)=C(c2ccc(Cl)cc2)C1 + CNC(=O)c1ccc(Nc2nc(OC3CCCC3)c3c(-c4ccc5nc(C)oc5c4)c[nH]c3n2)c(OC)c1
a: 85.8

q: What does the data say about its viability, T/C? Entry: C=CC(=O)N1CCN(c2nc(=O)n(-c3c(C)ccnc3C(C)C)c3nc(-c4c(O)cccc4F)c(F)cc23)C(C)C1 (centres undefined) + CN1CCN(c2cc(C(=O)Nc3cc4cc(-c5cnn(C)c5)ccc4cn3)ccn2)CC1
a: 90.5

q: What does the data say about its viability, T/C? Entry: COc1cccc2c1C(=O)c1c(O)c3c(c(O)c1C2=O)CC(O)(C(=O)CO)CC3OC1CC(N)C(O)C(C)O1 (centres undefined) + CNC(=O)c1ccc(Nc2nc(OC3CCCC3)c3c(-c4ccc5nc(C)oc5c4)c[nH]c3n2)c(OC)c1
a: 13

q: What does the data say about its viability, T/C? Entry: CC(CO)NC(=O)c1cc(-c2ccc(Cl)cc2)nn(-c2cnn(C)c2)c1=O (centres undefined) + CNC(=O)c1ccc(Nc2nc(OC3CCCC3)c3c(-c4ccc5nc(C)oc5c4)c[nH]c3n2)c(OC)c1
a: 72.3

q: What does the data say about its viability, T/C? Entry: COc1c(OCCCN2CCOCC2)ccc2c3n(c(=NC(=O)c4cnc(N)nc4)nc12)CCN3 + CNC(=O)c1ccc(Nc2nc(OC3CCCC3)c3c(-c4ccc5nc(C)oc5c4)c[nH]c3n2)c(OC)c1
a: 9.27

q: What does the data say about its viability, T/C? Entry: C#Cc1c(F)ccc2cc(O)cc(-c3ncc4c(N5CC6CCC(C5)N6)nc(OCC56CCCN5CC(F)C6)nc4c3F)c12 (centres undefined) + CNC(=O)c1ccc(Nc2nc(OC3CCCC3)c3c(-c4ccc5nc(C)oc5c4)c[nH]c3n2)c(OC)c1
a: 12.4

q: What does the data say about its viability, T/C? Entry: CC(CO)NC(=O)c1cc(-c2ccc(Cl)cc2)nn(-c2cnn(C)c2)c1=O (centres undefined) + CN1CCN(c2cc(C(=O)Nc3cc4cc(-c5cnn(C)c5)ccc4cn3)ccn2)CC1
a: 106
